Recorded Ratio for the following compounds
test: Ratio of drug uptake in pons to cerebellum in anesthetized cynomolgus monkey after 225 mins postinjection; format: ADME, organism-based, Macaca fascicularis; conditions: in vivo, 3.75 h
I only need the number, thanks.

// worked examples, Ratio included
[[record]]
compound = "O=C(OCCC[18F])C1C2CCC(CC1c1cccc(/C=C\\I)c1)N2 (centres undefined)"
measured_parameter = "Ratio"
result = 1.7

[[record]]
compound = "O=C(OCC[18F])C1C2CCC(CC1c1cccc(/C=C\\I)c1)N2 (centres undefined)"
measured_parameter = "Ratio"
result = 1.6

[[record]]
compound = "O=C(OCCC[18F])C1C2CCC(CC1c1cccc(/C=C\\Br)c1)N2 (centres undefined)"
measured_parameter = "Ratio"
result = 1.6


Let us move to another entry and its Ratio.
Briefly, Ratio measured for O=C(OCC[18F])C1C2CCC(CC1c1cccc(/C=C\Br)c1)N2 (centres undefined) : 1.7
